Sourced from paper PMC9236245

assayExplanation: Metabolic stability (t1/2, CLint) of AC, MA and HA in RLMs of pretreated rats
studyConditions: SD, rat, microsomes, t1/2, RLMs of rats pretreated with Glycyrrhizae 3 g/kg
property: half-life at 25 µM (h)

structuresmiles=CCN1C[C@]2(COC)[C@H](O)C[C@H](OC)[C@@]34[C@@H]5C[C@@]6(O)[C@H](OC(=O)c7ccccc7)[C@@H]5[C@@](OC(C)=O)([C@@H]([C@H](OC)[C@H]23)[C@@H]14)[C@@H](O)[C@@H]6OC datavalue=3.99

---

assayExplanation: in vitro
studyConditions: SD, rat, microsomes, CLint, RLMs of rats pretreated with Glycyrrhizae 1 g/kg
property: microsomal CLint (µL/min/mg)

molecule="COC[C@@]12CC[C@H](OC)[C@]34C(C([C@H](OC)[C@H]13)[C@]1(OC(C)=O)[C@H]3[C@@H](OC(=O)c5ccccc5)[C@](O)(C[C@H]34)[C@@H](OC)[C@@H]1O)N(C)C2 [HA, hypaconitine]" unitlabel=µL/min/mg datavalue=13.6
